- System: SK-OV-3 ovarian
- protocol.details: NCI tumour cell line growth inhibition, 48 h
Below is a list of entries, each paired with its recorded TGI value.
A number alone suffices; assume µM.

compound	unit.tag	TGI
CCN(Cc1c(F)cccc1C(F)(F)F)c1ccc(CO)c(Cl)c1	µM	26.8
COc1cc2ccnc3c2c(c1OC)N(C)C=C3	µM	79.3
CS(=O)(=O)Nc1cc(-c2ccc3ncnc(Nc4ccc(OCc5ccccn5)c(Cl)c4)c3c2)cnc1Cl	µM	1.16

May I ask what TGI has been recorded for COc1ccc(/C=C2\CCC(C)(CN(C)C)C2=O)cc1Br (centres undefined) ?
70.5

May I ask what TGI has been recorded for C[C@H]1O[C@@H](O[C@H]2[C@@H](O)C[C@H](O[C@H]3[C@@H](O)C[C@H](O[C@H]4CC[C@]5(C)C6CC[C@]7(C)[C@@H](C8=CC(=O)OC8)CC[C@]7(O)C6CC[C@@H]5C4)O[C@@H]3C)O[C@@H]2C)C[C@H](O)[C@@H]1O (some centres undefined) ?
0.067

May I ask what TGI has been recorded for CN(CCCNC(=O)c1[nH]nc2c1ccc1ccccc12)CCCNC(=O)c1[nH]nc2c1ccc1ccccc12 ?
34.2
